test system: LOX IMVI; assay: Growth inhibition of human LOX IMVI cells incubated for 48 hrs by sulforhodamine B assay; type: functional
READOUT: TGI (nM)
Please give a number only; it is taken to be in nM.

SMILES INPUT: COc1cc2nc(-c3ccc(C(F)(F)F)cc3)cc(OCCCN3CCCCC3)c2cc1OC
STUDY TARGET: LOX IMVI
UNITS SYMBOL: nM
TGI: 355
//
SMILES INPUT: COc1cc2nc(-c3ccc(Cl)cc3)cc(OCCCN3CCC(O)CC3)c2cc1OC
STUDY TARGET: LOX IMVI
UNITS SYMBOL: nM
TGI: 589
//
SMILES INPUT: COc1cc2nc(-c3ccc(C(F)(F)F)cc3)cc(OCCCN3CCCC3)c2cc1OC
STUDY TARGET: LOX IMVI
UNITS SYMBOL: nM
TGI: 275
//
SMILES INPUT: COc1cc2nc(-c3ccc(Cl)cc3)cc(OCCCN3CCOCC3)c2cc1OC
STUDY TARGET: LOX IMVI
UNITS SYMBOL: nM
TGI: 592
//
SMILES INPUT: COc1cc2nc(-c3ccc(C(F)(F)F)cc3)cc(OCCCN3CCOCC3)c2cc1OC
STUDY TARGET: LOX IMVI
UNITS SYMBOL: nM
TGI: 324
//
SMILES INPUT: COc1cc2nc(-c3ccc(Cl)cc3)cc(OCCCN3CCCCC3)c2cc1OC
STUDY TARGET: LOX IMVI
UNITS SYMBOL: nM
TGI: 435

Q. For the compound "COc1cc2nc(-c3ccc(Cl)cc3)cc(OCCCN3CCCC3)c2cc1OC" , report TGI.
A. 446

Q. For the compound "COc1cc2nc(-c3ccc(C(F)(F)F)cc3)cc(OCCCN3CCC(O)CC3)c2cc1OC" , report TGI.
A. 447

====

Consider the following compounds and their measured GI50 readings.
system: CCRF-CEM; assay: Growth inhibition of human CCRF-CEM cells incubated for 48 hrs by sulforhodamine B assay; assay type: functional
Answer by giving the amount and then stating its unit.

Reference set (2 entries):
SMILES INPUT: COc1cc2nc(-c3ccc(C(F)(F)F)cc3)cc(OCCCN3CCC(O)CC3)c2cc1OC
GI50: 3.26 µM
//
SMILES INPUT: COc1cc2nc(-c3ccc(Cl)cc3)cc(OCCCN3CCOCC3)c2cc1OC
GI50: 3.35 µM

Q. For the compound "COc1cc2nc(-c3ccc(Cl)cc3)cc(OCCCN3CCCC3)c2cc1OC" , report GI50.
A. 2.14 µM

Q. For the compound "COc1cc2nc(-c3ccc(Cl)cc3)cc(OCCCN3CCCCC3)c2cc1OC" , report GI50.
A. 2.79 µM

Q. For the compound "COc1cc2nc(-c3ccc(C(F)(F)F)cc3)cc(OCCCN3CCCCC3)c2cc1OC" , report GI50.
A. 1.83 µM

Q. For the compound "COc1cc2nc(-c3ccc(C(F)(F)F)cc3)cc(OCCCN3CCCC3)c2cc1OC" , report GI50.
A. 1.08 µM

Q. For the compound "COc1cc2nc(-c3ccc(Cl)cc3)cc(OCCCN3CCC(O)CC3)c2cc1OC" , report GI50.
A. 2.65 µM

Q. For the compound "COc1cc2nc(-c3ccc(C(F)(F)F)cc3)cc(OCCCN3CCOCC3)c2cc1OC" , report GI50.
A. 2.79 µM

====

system: MOLT-4; assay: Growth inhibition of human MOLT-4 cells incubated for 48 hrs by sulforhodamine B assay; assay type: functional
Decide using GI50 alone. Strictly below 2000 nM: satisfied. Equal to or above 2000 nM: not satisfied.

Sample answers from the record:
SMILES INPUT: COc1cc2nc(-c3ccc(C(F)(F)F)cc3)cc(OCCCN3CCCC3)c2cc1OC
GROUP: satisfied
--
SMILES INPUT: COc1cc2nc(-c3ccc(Cl)cc3)cc(OCCCN3CCOCC3)c2cc1OC
GROUP: not satisfied
--
SMILES INPUT: COc1cc2nc(-c3ccc(C(F)(F)F)cc3)cc(OCCCN3CCOCC3)c2cc1OC
GROUP: not satisfied
--
SMILES INPUT: COc1cc2nc(-c3ccc(Cl)cc3)cc(OCCCN3CCCC3)c2cc1OC
GROUP: satisfied
--
SMILES INPUT: COc1cc2nc(-c3ccc(C(F)(F)F)cc3)cc(OCCCN3CCCCC3)c2cc1OC
GROUP: satisfied

Q. Hello, is GI50 of the following compound strictly smaller than 2000 nM? "COc1cc2nc(-c3ccc(Cl)cc3)cc(OCCCN3CCC(O)CC3)c2cc1OC"
A. satisfied

Q. Hello, is GI50 of the following compound strictly smaller than 2000 nM? "COc1cc2nc(-c3ccc(C(F)(F)F)cc3)cc(OCCCN3CCC(O)CC3)c2cc1OC"
A. not satisfied

====

system: TK-10; assay: Growth inhibition of human TK-10 cells at 10 uM incubated for 48 hrs by sulforhodamine B assay relative to control; format: functional; settings: read-out: GI
Short version: inhibition of growth at 10 µM at least 10% is fulfilled, less is not fulfilled.

Q. Please tell me: is the molecule "COc1cc2nc(-c3ccc(C(F)(F)F)cc3)cc(OCCN3CCCCC3)c2cc1OC" at or over 10% in terms of inhibition of growth at 10 µM?
A. fulfilled

Q. Please tell me: is the molecule "COc1cc2nc(-c3ccc(Cl)cc3)cc(OCCN3CCCCC3)c2cc1OC" at or over 10% in terms of inhibition of growth at 10 µM?
A. not fulfilled

Q. Please tell me: is the molecule "COc1cc2nc(-c3ccc(Cl)cc3)cc(OCCN3CCC(O)CC3)c2cc1OC" at or over 10% in terms of inhibition of growth at 10 µM?
A. not fulfilled

Q. Please tell me: is the molecule "COc1cc2nc(-c3ccsc3)cc(OCCCN3CCC(O)CC3)c2cc1OC" at or over 10% in terms of inhibition of growth at 10 µM?
A. fulfilled

Q. Please tell me: is the molecule "COc1cc2nc(-c3ccc(Cl)cc3)cc(OCCCN3CCOCC3)c2cc1OC" at or over 10% in terms of inhibition of growth at 10 µM?
A. fulfilled

Q. Please tell me: is the molecule "COc1cc2nc(-c3ccc(Cl)cc3)cc(OCCN3CCCC3)c2cc1OC" at or over 10% in terms of inhibition of growth at 10 µM?
A. not fulfilled

Q. Please tell me: is the molecule "COc1cc2nc(-c3ccc(C(F)(F)F)cc3)cc(OCCN3CCC(O)CC3)c2cc1OC" at or over 10% in terms of inhibition of growth at 10 µM?
A. fulfilled

Q. Please tell me: is the molecule "COc1cc2nc(-c3ccco3)cc(OCCCN3CCC(O)CC3)c2cc1OC" at or over 10% in terms of inhibition of growth at 10 µM?
A. fulfilled

====

Consider the following molecules and their measured GI50 readings.
tested on: DU-145; assay: Growth inhibition of human DU-145 cells incubated for 48 hrs by sulforhodamine B assay; type: functional
Please give a number only; it is taken to be in nM.

Reference set (5 entries):
SMILES INPUT: COc1cc2nc(-c3ccc(Cl)cc3)cc(OCCCN3CCC(O)CC3)c2cc1OC
UNITS SYMBOL: nM
GI50: 2780

SMILES INPUT: COc1cc2nc(-c3ccc(C(F)(F)F)cc3)cc(OCCCN3CCCCC3)c2cc1OC
UNITS SYMBOL: nM
GI50: 1840

SMILES INPUT: COc1cc2nc(-c3ccc(Cl)cc3)cc(OCCCN3CCCC3)c2cc1OC
UNITS SYMBOL: nM
GI50: 2150

SMILES INPUT: COc1cc2nc(-c3ccc(C(F)(F)F)cc3)cc(OCCCN3CCOCC3)c2cc1OC
UNITS SYMBOL: nM
GI50: 10100

SMILES INPUT: COc1cc2nc(-c3ccc(C(F)(F)F)cc3)cc(OCCCN3CCC(O)CC3)c2cc1OC
UNITS SYMBOL: nM
GI50: 4960

Q. For the molecule "COc1cc2nc(-c3ccc(Cl)cc3)cc(OCCCN3CCCCC3)c2cc1OC" , report GI50.
A. 2540

Q. For the molecule "COc1cc2nc(-c3ccc(C(F)(F)F)cc3)cc(OCCCN3CCCC3)c2cc1OC" , report GI50.
A. 1370

====

test system: A549; assay: Growth inhibition of human A549 cells incubated for 48 hrs by sulforhodamine B assay; assay type: functional
Consider the following molecules and their measured GI50 readings.
Please give a number only; it is taken to be in nM.

Reference set (2 entries):
SMILES INPUT: COc1cc2nc(-c3ccc(C(F)(F)F)cc3)cc(OCCCN3CCC(O)CC3)c2cc1OC
STUDY TARGET: A549
GI50, nM: 1650
--
SMILES INPUT: COc1cc2nc(-c3ccc(Cl)cc3)cc(OCCCN3CCCCC3)c2cc1OC
STUDY TARGET: A549
GI50, nM: 1900

Let's switch to this molecule now.
Q. Lab note: A549 assay, enter GI50 for "COc1cc2nc(-c3ccc(Cl)cc3)cc(OCCCN3CCC(O)CC3)c2cc1OC" here
A. 2200
